Below is a list of entries, each paired with its recorded pIC50 value.
# MEASURED TARGET: human carbonic anhydrase 9 (CAIX) (human, UniProt Q16790 38-459)
# ASSAY NAME: FACS competition on HT-29 cells, competitor tracer 3BP-2776; category A = pIC50 >8.0
Starred links: 1 amine or outer side, 2 acyl side, 3 side chain; linkers in the order of their positions; H or OH if unused. Positions of bridges follow the written chain, without caps; N, C: chain ends. Non-standard residues stand in square brackets, D forms with d. Primed or numbered codes have the meaning given here. ξ: configuration not given here. *: point of attachment. APAc″ = 2-(4-(amino)piperidin-1-yl)acetic acid, NC1CCN(CC(=O)*)CC1; DOTA = O=C(O)CN1CCN(CC(=O)O)CCN(CC(=O)*)CCN(CC(=O)O)CC1; Phe(3,4-Cl2) = N[C@@H](Cc1ccc(Cl)c(Cl)c1)C(=O)O; ξTrp(7-Me) = Cc1cccc2c(CC(N)C(=O)O)c[nH]c12; mXylylene = c1cc(C[*:1])cc(C[*:2])c1; APAc = not defined here

Observe how each entry below is paired with its result.
{"BINDER": "{DOTA-APAc″}-VYCE[dP]D[ξTrp(7-Me)]LTWSC-NH2 (linker 3-12 via mXylylene; not fully specified) [3BP-4158]", "pIC50": "> 8 pic50"}
{"BINDER": "{DOTA}-YCE[dP]KWLEWSC-NH2 (linker 2-11 via mXylylene; lactam 5-8; SMILES CC(C)C[C@@H]1NC(=O)[C@H](Cc2c[nH]c3ccccc23)NC(=O)[C@@H]2CCCCNC(=O)CC[C@H](NC1=O)C(=O)N[C@@H](Cc1c[nH]c3ccccc13)C(=O)N[C@@H](CO)C(=O)N[C@H](C(N)=O)CSCc1cccc(c1)CSC[C@H](NC(=O)[C@H](Cc1ccc(O)cc1)NC(=O)CN1CCN(CC(=O)O)CCN(CC(=O)O)CCN(CC(=O)O)CC1)C(=O)N[C@@H](CCC(=O)O)C(=O)N1CCC[C@@H]1C(=O)N2) [3BP-3934]", "pIC50": "> 8 pic50"}

Consider the binder {DOTA-APAc}-VYCE[dP]D[Phe(3,4-Cl2)]LTWSC-NH2 (linker 3-12 via mXylylene; not fully specified; reading uncertain) [3BP-4133] and give its measured pIC50.
> 8 pic50
